- MEASURED_TARGET: human GLP1-R (Homo sapiens, UniProt P43220)
- Sequence (P43220 24-463): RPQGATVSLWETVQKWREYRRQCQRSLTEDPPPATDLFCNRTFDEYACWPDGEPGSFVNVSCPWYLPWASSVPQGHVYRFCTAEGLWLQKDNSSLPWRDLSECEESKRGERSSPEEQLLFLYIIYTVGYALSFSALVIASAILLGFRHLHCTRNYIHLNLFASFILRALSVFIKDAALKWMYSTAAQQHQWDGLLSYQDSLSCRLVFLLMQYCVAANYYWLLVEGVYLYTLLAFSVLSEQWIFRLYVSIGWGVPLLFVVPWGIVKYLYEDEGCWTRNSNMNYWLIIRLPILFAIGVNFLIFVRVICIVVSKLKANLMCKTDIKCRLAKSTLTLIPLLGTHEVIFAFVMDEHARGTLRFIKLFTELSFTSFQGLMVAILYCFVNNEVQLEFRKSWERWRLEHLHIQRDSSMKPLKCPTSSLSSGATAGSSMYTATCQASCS
- PROCEDURE_SUMMARY: GLP1-R internalization assay in HEK293 cells
- Assay type: cell-based
- CONDITION_DETAILS: normalized to maximum concentration of GLP-1 (100%)
Starred links: 1 amine or outer side, 2 acyl side, 3 side chain; linkers in the order of their positions; H or OH if unused. Non-standard residues stand in square brackets, D forms with d. Groups on a side chain read outwards from the residue. *: point of attachment. C18 diacid = O=C(O)CCCCCCCCCCCCCCCCC(=O)*; γGlu = O=C(O)[C@H](CCC(=O)[*:2])N[*:1]; αMe4Pal = C[C@](N)(Cc1ccncc1)C(=O)O; 4Pal = N[C@@H](Cc1ccncc1)C(=O)O; αMeL = CC(C)C[C@](C)(N)C(=O)O; Orn = NCCC[C@H](N)C(=O)O; AEEA = NCCOCCOCC(=O)O; Aib = CC(C)(N)C(=O)O
Please note: Y applies when Internalization % TOP is 50% or greater, and N applies otherwise.

SUBSTANCE	MEASURED_TARGET	CLASS_ASSIGNMENT
H-Y[Aib]QGTFTSDFS[Orn][αMeL]LDKK([AEEA-γGlu-γGlu-C18 diacid])AQ[Aib]AFIEYLLE[Aib]GPSSGAPPPSG[4Pal]-NH2 [Example 279]	human GLP1-R (Homo sapiens, UniProt P43220)	N
H-Y[Aib]QGTFTSDFSR[αMeL]LDKK([AEEA-γGlu-C18 diacid])AQ[Aib]AFIEYLLE[Aib]GPSSGAPPPSGS-NH2 [Example 79]	human GLP1-R (Homo sapiens, UniProt P43220)	N
H-Y[Aib]QGTFTSDFS[Orn][αMeL]LDKK([AEEA-γGlu-C18 diacid])AQ[αMe4Pal]AFIEYLIE[Aib]GESSGAPPPSGS-NH2 [Example 229]	human GLP1-R (Homo sapiens, UniProt P43220)	N

Problem: Has H-Y[Aib]QGTFTSDFS[Orn][αMeL]LDKK([AEEA-γGlu-C18 diacid])AQ[Aib]AFIEWLLEGGHSSGAPPPEGS-NH2 [Example 126] a recorded Internalization % TOP greater than or equal to 50%?
Result: N

Problem: Has H-Y[Aib]QGTFTSDFS[Orn][αMeL]LDKK([AEEA-γGlu-C18 diacid])AQ[Aib]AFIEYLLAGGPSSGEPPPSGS-NH2 [Example 94] a recorded Internalization % TOP greater than or equal to 50%?
Result: N

Problem: Has H-Y[Aib]QGTFTSDFS[Orn][αMeL]LDKK([AEEA-AEEA-γGlu-C18 diacid])AQ[Aib]AFIEYLLE[dA]GPSSGEPPPSGQ-NH2 [Example 157] a recorded Internalization % TOP greater than or equal to 50%?
Result: Y
